System: iNOS
Assay: iNOS Western blot in RAW264.7 mouse macrophages
Assay type: cell-based
Details: compounds at 300 nM for 2 hours, 24 hour induction by IFNγ, read-out: iNOS suppr. WB
Method: FIGS. 38-40. iNOS Western Blot in RAW264.7 mouse macrophages. Cells were pretreated by compounds at 300 nM for 2 hours, followed by 24 hour induction by IFNγ (20 ng/ml). […]
READOUT KIND: inhibition at 0.3 µM

structure=CC1(C)CC[C@]2(NS(C)(=O)=O)CC[C@]3(C)[C@H](C(=O)C=C4[C@@]5(C)C=C(C#N)C(=O)C(C)(C)[C@@H]5CC[C@]43C)[C@@H]2C1 assay_result=~90%
structure=CCS(=O)(=O)N[C@]12CCC(C)(C)C[C@H]1[C@H]1C(=O)C=C3[C@@]4(C)C=C(C#N)C(=O)C(C)(C)[C@@H]4CC[C@@]3(C)[C@]1(C)CC2 assay_result="> 90%"
structure=C=CC(=O)N[C@]12CCC(C)(C)C[C@H]1[C@H]1C(=O)C=C3[C@@]4(C)C=C(C#N)C(=O)C(C)(C)[C@@H]4CC[C@@]3(C)[C@]1(C)CC2 assay_result=~90%
